Percent Control values for the compounds below.
- Tested on: CSNK2A1;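 further: KINOMEscan scanMAX binding as percent activity remaining versus control; lower means stronger binding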
- condition.context: Compound Concentration (nM):1000
observation.type: Percent Control (%)

compound="C/C(Nc1ccc(S(N)(=O)=O)cc1)=C1/C(=O)Nc2ccccc21 [GW335962X]" observation_type="Percent Control" unit_spec=% test_value=57
compound="Cl.O=C(O[C@H]1CN[C@H](C#Cc2cc3ncnc(Nc4ccc5c(cnn5Cc5ccccc5)c4)c3s2)C1)N1CCOCC1 [GSK200398A]" observation_type="Percent Control" unit_spec=% test_value=75
compound="CC1=C(C(=O)Nc2ccc3[nH]ncc3c2)C(c2ccc3ccccc3c2)CC(=O)N1 (centres unmarked) [GSK270822A]" observation_type="Percent Control" unit_spec=% test_value=80
compound="Cl.O=C(Nc1ccc(Oc2ccc3[nH]c(NC(=O)c4ccccc4)nc3c2)cc1)Nc1cc(C(F)(F)F)ccc1F [GW709042A]" observation_type="Percent Control" unit_spec=% test_value=92
compound="COc1ccccc1-c1cc(/C=C2\\C(=O)Nc3ncc(Br)cc32)cc(Br)c1O [GW442130X]" observation_type="Percent Control" unit_spec=% test_value=66
compound="Cl.O=S1CCN(Cc2ccc(-c3ccc4ncnc(Nc5ccc(OCc6ccccc6)c(F)c5)c4c3)o2)CC1 [GW576924A]" observation_type="Percent Control" unit_spec=% test_value=84
compound="COc1ccc2c(-c3ccnc(Nc4cccc(OC(F)(F)F)c4)n3)cnn2n1 [GW810372X]" observation_type="Percent Control" unit_spec=% test_value=67
compound="COc1cc(C)c(N(C)C(=O)CN(C)C)cc1Nc1nc(Nc2cccc(F)c2C(N)=O)c2cc[nH]c2n1 [GSK2219385]" observation_type="Percent Control" unit_spec=% test_value=78
compound="COc1ccc2cc(-c3c(-c4ccncc4)nc(-c4ccc(S(C)(=O)=O)cc4C)n3C)ccc2c1 [SB-633825]" observation_type="Percent Control" unit_spec=% test_value=82
compound="CN(C)c1cc2c(Nc3ccc4c(cnn4Cc4ccccc4)c3)ncnc2cn1 [GW282974X]" observation_type="Percent Control" unit_spec=% test_value=82
compound="CCc1ccc(Oc2nccc(-c3c(-c4ccc(F)cc4)ncn3C3CCNCC3)n2)cc1 [SB-242719]" observation_type="Percent Control" unit_spec=% test_value=77
compound="COc1ccc2[nH]c3c4[nH]c5ccc(OC)cc5c4c4c(c3c2c1)C(=O)NC4=O [GW296115X]" observation_type="Percent Control" unit_spec=% test_value=61
compound="COc1cc2ncnc(Nc3ccc4c(cnn4Cc4ccccc4)c3)c2cc1OC.Cl [GW282449A]" observation_type="Percent Control" unit_spec=% test_value=82
compound="COc1ccc(COc2ccc(Cc3cnc(N)nc3N)cc2OC)cc1 [GW632580X]" observation_type="Percent Control" unit_spec=% test_value=90
compound="O=C(Nc1n[nH]c2nc(-c3ccc(O)cc3)c(Br)cc12)C1CC1 [SB-725317]" observation_type="Percent Control" unit_spec=% test_value=87
compound="CC(C)COC(=O)c1ccc2c(c1)/C(=C/Nc1ccc(S(N)(=O)=O)cc1)C(=O)N2 [GW416981X]" observation_type="Percent Control" unit_spec=% test_value=9
compound="COc1cc2ncn(-c3cc(O[C@H](C)c4ccccc4Cl)c(C(N)=O)s3)c2cc1OC [GSK237701A]" observation_type="Percent Control" unit_spec=% test_value=83

Attribution: paper PMC7826789
